// read-out pIC50, gathered for Coagulation factor XI (Homo sapiens, UniProt P03951) from published studies
pIC50: −log10 of the molar value.
endpoint-name: pIC50

# compound, study-system, value
data = [
    ("COC(=O)Nc1ccc(-c2cnc(C(CC3(C)CC3)c3ccc(-c4cc(Cl)ccc4-n4cnnn4)c[n+]3[O-])[nH]2)cc1 (single isomer, unassigned)", "Coagulation factor XI (Homo sapiens, UniProt P03951)", 7.32),
    ("CC1Cc2ccc(Cl)cc2-c2cc(=O)n(C(C[C@@H]3COCCO3)C(=O)Nc3ccc4nn(C)nc4c3)cc2CO1 (mixture of isomers)", "Coagulation factor XI (Homo sapiens, UniProt P03951)", 7.72),
    ("Nc1c(C(=O)N2CCC[C@@]3(C2)OC(=O)Nc2ccc(Cl)c(F)c23)cnn1Cc1ccc(Cl)cc1", "Coagulation factor XI (Homo sapiens, UniProt P03951)", 6.30),
    ("COc1cn(C(CC2COCCO2)C(=O)Nc2ccc(C(N)=O)c(F)c2)c(=O)cc1-c1cc(Cl)ccc1OCCF (stereo not drawn)", "Coagulation factor XI (Homo sapiens, UniProt P03951)", 7.54),
    ("O=C(Nc1ccc2nn(C(F)F)cc2c1)[C@@H]1CCC2CC(c3c(-n4cnnn4)ccc(Cl)c3F)=CC(=O)N21 (single isomer, unassigned)", "Coagulation factor XI (Homo sapiens, UniProt P03951)", 8.38),
    ("Cc1ncc(-c2c(C(F)F)ccc(Cl)c2F)nc1C(=O)Nc1cnn(Cc2cnc(N3CC(F)(F)C3)c(C)n2)c1", "Coagulation factor XI (Homo sapiens, UniProt P03951)", 5.77),
]

----------
// read-out IC50, gathered for Coagulation factor XI (Homo sapiens) from published studies
endpoint-name: IC50 (nM)

# molecule, value
measured = [
    ("C[C@H]1CCC[C@@H](c2ccc(-c3cc(Cl)ccc3-n3cc(Cl)nn3)oc2=O)c2cc(ccn2)-c2c(cnn2C(F)F)NC1=O (single isomer, unassigned)", 34.1),
    ("COC(=O)Nc1ccc(-c2cnc(C(CC3CC3)c3ccc(-c4cc(Cl)ccc4-c4cnco4)c[n+]3[O-])[nH]2)cc1 (single isomer, unassigned)", 1000),
    ("O=C(Cc1ccc(-c2cc(Cl)ccc2C2CC2)c[n+]1[O-])Nc1ccc(C(=O)O)cc1", 2190),
    ("C[C@@H](c1cnc(N2C[C@H]3C[C@H]3C2=O)nc1)n1cc(NC(=O)c2nc(-c3c(C(F)F)ccc(Cl)c3F)cnc2C(F)F)cn1", 9350),
    ("O=C(Nc1cnn(C(CO)c2cnc(N3CC4CC4C3)nc2)c1)c1cncc(-c2c(C(F)F)ccc(Cl)c2F)n1 (single isomer, unassigned)", 1460),
    ("COc1cn(C(Cc2cccnc2)C(=O)Nc2ccc(C(N)=O)nc2)c(=O)cc1-c1cc(Cl)ccc1C#N (stereo not drawn)", 11),
]

----------
# merged literature set: pIC50 with Coagulation factor XI (Homo sapiens, UniProt P03951)
pIC50: −log10 of the molar value.
endpoint-name: pIC50

# compound, value
records = [
    ("COCCC(C(=O)Nc1ccc(C(=O)O)cc1)n1cc2c(cc1=O)-c1cc(Cl)ccc1CC1(CC1)NC2=O (stereo not drawn)", 8.72),
    ("Nc1cc(-c2ncc(F)cc2F)nn1CC(=O)N1CC[C@@]2(C1)OC(=O)Nc1ccc(Cl)c(F)c12", 6.37),
    ("Cc1nc(N2C[C@H]3C[C@H]3C2=O)ncc1C(C)n1cc(NC(=O)c2nc(-c3c(C(F)F)ccc(Cl)c3F)cnc2CO)cn1 (single isomer, unassigned)", 6.12),
    ("O=C(O)c1ccc(NC(=O)C(CC2CC2)c2ccc(-c3cc(Cl)ccc3OC(F)(F)F)c[n+]2[O-])cc1 (single isomer, unassigned)", 7.72),
    ("Cc1cc2[nH]c(C(C)C)nc2cc1-c1ccc(C[C@@H](NC(=O)C2CCC(CN)CC2)C(=O)Nc2ccc3[nH]c(=O)[nH]c3c2)cc1 (single isomer, unassigned; enantiomer 1)", 7.43),
    ("Nc1cc(-c2ncc(F)cc2F)nn1CC(=O)N1CCC[C@@]2(C1)OC(=O)Nc1ccc(Cl)c(F)c12", 6.19),
]
